System tested: Human α2δ-1 subunit of Cav2.2 calcium channel (Homo sapiens, UniProt P54289)
Sequence (P54289 25-1103): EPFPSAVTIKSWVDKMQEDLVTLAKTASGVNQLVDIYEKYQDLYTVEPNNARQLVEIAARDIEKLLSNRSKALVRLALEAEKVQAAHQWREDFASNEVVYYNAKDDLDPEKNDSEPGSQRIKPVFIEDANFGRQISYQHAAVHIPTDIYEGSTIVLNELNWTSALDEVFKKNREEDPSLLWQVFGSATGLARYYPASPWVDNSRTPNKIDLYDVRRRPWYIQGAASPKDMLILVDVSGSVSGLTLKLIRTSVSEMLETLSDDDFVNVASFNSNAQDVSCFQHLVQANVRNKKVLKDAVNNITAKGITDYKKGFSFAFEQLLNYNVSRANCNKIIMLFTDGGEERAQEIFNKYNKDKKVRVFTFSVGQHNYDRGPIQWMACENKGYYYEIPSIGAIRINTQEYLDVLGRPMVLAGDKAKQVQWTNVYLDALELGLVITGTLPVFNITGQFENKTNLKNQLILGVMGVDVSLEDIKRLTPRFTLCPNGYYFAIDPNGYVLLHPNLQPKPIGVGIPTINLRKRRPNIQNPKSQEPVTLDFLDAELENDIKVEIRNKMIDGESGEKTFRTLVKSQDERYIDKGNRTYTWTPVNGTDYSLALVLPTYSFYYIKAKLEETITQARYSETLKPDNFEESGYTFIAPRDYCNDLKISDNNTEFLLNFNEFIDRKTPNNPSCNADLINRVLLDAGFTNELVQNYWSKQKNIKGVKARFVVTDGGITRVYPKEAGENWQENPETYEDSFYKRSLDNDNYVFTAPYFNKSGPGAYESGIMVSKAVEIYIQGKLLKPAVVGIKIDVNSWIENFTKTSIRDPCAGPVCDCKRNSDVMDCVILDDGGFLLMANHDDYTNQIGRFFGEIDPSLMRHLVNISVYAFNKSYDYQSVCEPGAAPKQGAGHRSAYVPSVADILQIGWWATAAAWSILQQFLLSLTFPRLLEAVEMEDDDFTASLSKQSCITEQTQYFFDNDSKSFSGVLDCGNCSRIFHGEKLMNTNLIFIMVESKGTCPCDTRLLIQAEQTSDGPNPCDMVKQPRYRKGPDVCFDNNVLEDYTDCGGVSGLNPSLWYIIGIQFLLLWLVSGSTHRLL
Test name: Human α2δ-1 subunit of Cav2.2 calcium channel assay ([3H]-gabapentin binding)
Measurement setup: binding to the α2δ-1 subunit of voltage-gated calcium channels expressed as Ki; + also covers inhibition between 1% and 50%
Quantity measured: Ki

Compound	Observed value
Cc1nn2c([C@@H]3CCCN(Cc4ccc(Cl)cc4)C3)ccnc2c1CNC[C@H]1CCOC(C)(C)C1 [Example 222]	> 5 µM

**Query** Recall and state the measured Ki for CNCCNc1cc2nccc(C3CCCN(Cc4ccccc4)C3)n2n1 (centres unmarked) [Example 83] .
**Result** 0.5 to 5 µM

**Query** Recall and state the measured Ki for Cc1nn2c(C3CCCN(Cc4ccccc4)C3)ccnc2c1-c1ccc(N(C)C)cc1 (centres unmarked) [Example 47] .
**Result** > 5 µM

**Query** Recall and state the measured Ki for Cc1nn2c(C3CCCN(Cc4ccc(Cl)cc4)C3)ccnc2c1CN1CCN(S(C)(=O)=O)CC1 (centres unmarked) [Example 175] .
**Result** > 5 µM

**Query** Recall and state the measured Ki for Cc1nn2c(C3CCCN(Cc4ccc(Cl)cc4)C3)ccnc2c1CNCCN1CCOCC1 (centres unmarked) [Example 166] .
**Result** 0.5 to 5 µM

**Query** Recall and state the measured Ki for Cc1nn2c(C3CCCN(Cc4ccccc4)C3)ccnc2c1CNCc1ccccc1 (centres unmarked) [Example 98] .
**Result** 0.5 to 5 µM

**Query** Recall and state the measured Ki for Cc1nn2c(C3CCCN(Cc4ccccc4)C3)ccnc2c1N1CCCC1 (centres unmarked) [Example 89] .
**Result** 0.5 to 5 µM

**Query** Recall and state the measured Ki for Cc1nn2c(C3CCCN(Cc4ccc(Cl)cc4)C3)ccnc2c1CN1CCSCC1 (centres unmarked) [Example 167] .
**Result** 0.5 to 5 µM
